Hey, just so you know, these numbers are from the supplement of paper PMC11061612.

- Test system: T98G (Glioblastoma)
- experimental-details: Bliss excess, mean over the matrix (fraction); higher = more synergy
quantity-kind: Bliss excess
One number for each entry.

Dear reader, for each entry below, please note its Bliss excess.
1. C=CCn1c(=O)c2cnc(Nc3ccc(N4CCN(C)CC4)cc3)nc2n1-c1cccc(C(C)(C)O)n1 [AZD1775] + CCc1c2c(nc3ccc(O)cc13)-c1cc3c(c(=O)n1C2)COC(=O)[C@]3(O)CC [SN-38] (first compound max 1 µM, partner max 0.3 µM)
2. CN(CCO)CC[C@H](CSc1ccccc1)Nc1ccc(S(=O)(=O)NC(=O)c2ccc(N3CCC([C@@H](O)c4ccccc4-c4ccc(Cl)cc4)CC3)cc2)cc1S(=O)(=O)C(F)(F)F [AZD4320] + Cc1cc2ncnn2cc1Nc1ncc2c(n1)n(C1CCOCC1)c(=O)n2C [AZD7648] (first compound max 1 µM, 7x7, partner max 10 µM)
3. C[C@@H](c1ccc2nccn2c1)n1nnc2ncc(-c3cnn(C)c3)nc21 [Savolitinib] + Cc1c2c(nn1C)CSCc1cc(n(C)n1)CSc1cc(c3ccccc3c1)OCCCc1c(C(=O)O)n(C)c3c-2c(Cl)ccc13 [AZD5991] (first compound max 1 µM, 7x7, partner max 1 µM)
4. C=CCn1c(=O)c2cnc(Nc3ccc(N4CCN(C)CC4)cc3)nc2n1-c1cccc(C(C)(C)O)n1 [AZD1775] + C[C@@H]1COCCN1C2=NC(=NC(=C2)C3(CC3)[S@](=N)(=O)C)C4=C5C=CNC5=NC=C4 [AZD6738] (first compound max 1 µM, partner max 10 µM)
5. COc1cc2c(cc1OCCCCCOc1cc3c(cc1OC)C(=O)N1C=C(C)C[C@H]1C=N3)N=C[C@@H]1CC(C)=CN1C2=O [SG3199] + O=C(c1cc(Cc2n[nH]c(=O)c3ccccc23)ccc1F)N1CCN(C(=O)C2CC2)CC1 [Olaparib] (first compound max 0.001 µM, 7x7, partner max 10 µM)
6. N#Cc1cnc(Nc2cc(NC[C@H]3CNCCO3)c(C(F)(F)F)cn2)cn1 [SRA737] + Nc1ccn([C@@H]2O[C@H](CO)[C@@H](O)C2(F)F)c(=O)n1 [Gemcitabine] (first compound max 10 µM, 7x7, partner max 0.3 µM)
7. Cn1cnc2c(F)c(Nc3ccc(Br)cc3Cl)c(C(=O)NOCCO)cc21 [Selumetinib] + C=CCn1c(=O)c2cnc(Nc3ccc(N4CCN(C)CC4)cc3)nc2n1-c1cccc(C(C)(C)O)n1 [AZD1775] (first compound max 10 µM, partner max 1 µM)

Reply text:
1: 0.0057; 2: -0.0493; 3: -0.021; 4: -0.0178; 5: -0.0486; 6: 0.0323; 7: -0.0395

----------
- System: MDA-MB-361 (Breast Carcinoma)
- experimental-details: Bliss excess, mean over the matrix (fraction); higher = more synergy
quantity-kind: Bliss excess
Answers are plain numbers.

Solved cases (2 shown):
[[record]]
compound = "CN(CCO)CC[C@H](CSc1ccccc1)Nc1ccc(S(=O)(=O)NC(=O)c2ccc(N3CCC([C@@H](O)c4ccccc4-c4ccc(Cl)cc4)CC3)cc2)cc1S(=O)(=O)C(F)(F)F [AZD4320] + Cn1cnc2c(F)c(Nc3ccc(Br)cc3Cl)c(C(=O)NOCCO)cc21 [Selumetinib] (first compound max 1 µM, 7x7, partner max 3 µM)"
quantity_kind = "Bliss excess"
result_value = 0.0835

[[record]]
compound = "COc1cccc(OCCCN)c1-c1cc(Nc2cnc(C#N)cn2)n[nH]1 [Prexasertib] + CN(C)CCCOc1ccc(-c2ccc3ncc4c(c3c2)n(C2CCOCC2)c(=O)n4C)cn1 [AZD0156] (first compound max 1 µM, 7x7, partner max 1 µM)"
quantity_kind = "Bliss excess"
result_value = 0.0014


Let's switch to this compound now.
// recorded Bliss excess for NC1(C(=O)N[C@@H](CCO)c2ccc(Cl)cc2)CCN(c2ncnc3[nH]ccc23)CC1 [Capivasertib] + C[C@@H]1COCCN1C2=NC(=NC(=C2)C3(CC3)[S@](=N)(=O)C)C4=C5C=CNC5=NC=C4 [AZD6738] (first compound max 10 µM, 7x7, partner max 10 µM) : -0.11

----------
- Tested on: Calu-3 (Lung Adenocarcinoma)
- experimental-details: combination Emax (second highest fraction inhibited in the dose matrix, 72 h); higher = more inhibition; extreme values may be limits of the assay
Criterion: combination Emax meeting or surpassing 0.2. Met: Met. Not met: Not met.

Some entries whose results are on file:
[[record]]
molecule = "C=CCn1c(=O)c2cnc(Nc3ccc(N4CCN(C)CC4)cc3)nc2n1-c1cccc(C(C)(C)O)n1 [AZD1775] + CCc1c2c(nc3ccc(O)cc13)-c1cc3c(c(=O)n1C2)COC(=O)[C@]3(O)CC [SN-38] (first compound max 1 µM, partner max 0.3 µM)"
cat = "Met"

[[record]]
molecule = "N#Cc1cnc(Nc2cc(NC[C@H]3CNCCO3)c(C(F)(F)F)cn2)cn1 [SRA737] + CCc1c2c(nc3ccc(O)cc13)-c1cc3c(c(=O)n1C2)COC(=O)[C@]3(O)CC [SN-38] (first compound max 10 µM, 7x7, partner max 0.3 µM)"
cat = "Met"


Inquiry: Form field: combination Emax at least 0.2? Entry: CN(C)CCCOc1ccc(-c2ccc3ncc4c(c3c2)n(C2CCOCC2)c(=O)n4C)cn1 [AZD0156] + O=C(c1cc(Cc2n[nH]c(=O)c3ccccc23)ccc1F)N1CCN(C(=O)C2CC2)CC1 [Olaparib] (first compound max 3 µM, partner max 3 µM)
Reply text: Not met

Inquiry: Form field: combination Emax at least 0.2? Entry: COc1cccc2c1C(=O)c1c(O)c3c(c(O)c1C2=O)C[C@@](O)(C(=O)CO)C[C@@H]3O[C@H]1C[C@H](N)[C@H](O)[C@H](C)O1 [Doxorubicin] + Cc1cc2ncnn2cc1Nc1ncc2c(n1)n(C1CCOCC1)c(=O)n2C [AZD7648] (first compound max 1 µM, 7x7, partner max 10 µM)
Reply text: Met

Inquiry: Form field: combination Emax at least 0.2? Entry: CC1(C)CCC(CN2CCN(c3ccc(C(=O)NS(=O)(=O)c4ccc(NCC5CCOCC5)c([N+](=O)[O-])c4)c(Oc4cnc5[nH]ccc5c4)c3)CC2)=C(c2ccc(Cl)cc2)C1 [Venetoclax] + CCN(CCO)CCCOc1ccc2c(Nc3cc(CC(=O)Nc4cccc(F)c4)[nH]n3)ncnc2c1 [AZD2811] (first compound max 1 µM, 7x7, partner max 1 µM)
Reply text: Not met

Inquiry: Form field: combination Emax at least 0.2? Entry: Cc1c2c(nn1C)CSCc1cc(n(C)n1)CSc1cc(c3ccccc3c1)OCCCc1c(C(=O)O)n(C)c3c-2c(Cl)ccc13 [AZD5991] + C1CN(CCC1(C(=O)N[C@@H](CCO)C2=CC=C(C=C2)Cl)N)C3=NC=NC4=C3C=CN4 [Capivasertib] (first compound max 1 µM, 7x7, partner max 3 µM)
Reply text: Not met

Inquiry: Form field: combination Emax at least 0.2? Entry: COc1nnc2ccc(N3CCC(c4ccc(OCCN5CCN(C)C(=O)[C@H]5C)cc4)CC3)nn12 [AZD5153] + CC1(C)CCC(CN2CCN(c3ccc(C(=O)NS(=O)(=O)c4ccc(NCC5CCOCC5)c([N+](=O)[O-])c4)c(Oc4cnc5[nH]ccc5c4)c3)CC2)=C(c2ccc(Cl)cc2)C1 [Venetoclax] (first compound max 1 µM, 7x7, partner max 1 µM)
Reply text: Met

----------
- Test system: DoTc2-4510 (Cervical Carcinoma)
- experimental-details: Bliss excess, mean over the matrix (fraction); higher = more synergy
Criterion: Bliss excess meeting or surpassing -0.007. Met: MET. Not met: NOT MET.

Some entries whose results are on file:
[[record]]
compound = "COc1nnc2ccc(N3CCC(c4ccc(OCCN5CCN(C)C(=O)[C@H]5C)cc4)CC3)nn12 [AZD5153] + Cn1cnc2c(F)c(Nc3ccc(Br)cc3Cl)c(C(=O)NOCCO)cc21 [Selumetinib] (first compound max 1 µM, 7x7, partner max 10 µM)"
cat = "MET"

[[record]]
compound = "N#Cc1cnc(Nc2cc(NC[C@H]3CNCCO3)c(C(F)(F)F)cn2)cn1 [SRA737] + C=CCn1c(=O)c2cnc(Nc3ccc(N4CCN(C)CC4)cc3)nc2n1-c1cccc(C(C)(C)O)n1 [AZD1775] (first compound max 10 µM, partner max 1 µM)"
cat = "MET"


Inquiry: Form field: Bliss excess at least -0.007? Entry: Cc1c2c(nn1C)CSCc1cc(n(C)n1)CSc1cc(c3ccccc3c1)OCCCc1c(C(=O)O)n(C)c3c-2c(Cl)ccc13 [AZD5991] + C1CN(CCC1(C(=O)N[C@@H](CCO)C2=CC=C(C=C2)Cl)N)C3=NC=NC4=C3C=CN4 [Capivasertib] (first compound max 1 µM, 7x7, partner max 3 µM)
Reply text: MET

Inquiry: Form field: Bliss excess at least -0.007? Entry: NC1(C(=O)N[C@@H](CCO)c2ccc(Cl)cc2)CCN(c2ncnc3[nH]ccc23)CC1 [Capivasertib] + CCN(CCO)CCCOc1ccc2c(Nc3cc(CC(=O)Nc4cccc(F)c4)[nH]n3)ncnc2c1 [AZD2811] (first compound max 10 µM, 7x7, partner max 1 µM)
Reply text: NOT MET

Inquiry: Form field: Bliss excess at least -0.007? Entry: C=CCn1c(=O)c2cnc(Nc3ccc(N4CCN(C)CC4)cc3)nc2n1-c1cccc(C(C)(C)O)n1 [AZD1775] + CCc1c2c(nc3ccc(O)cc13)-c1cc3c(c(=O)n1C2)COC(=O)[C@]3(O)CC [SN-38] (first compound max 1 µM, partner max 0.3 µM)
Reply text: NOT MET

Inquiry: Form field: Bliss excess at least -0.007? Entry: COc1nnc2ccc(N3CCC(c4ccc(OCCN5CCN(C)C(=O)[C@H]5C)cc4)CC3)nn12 [AZD5153] + CCN(CCO)CCCOc1ccc2c(Nc3cc(CC(=O)Nc4cccc(F)c4)[nH]n3)ncnc2c1 [AZD2811] (first compound max 1 µM, 7x7, partner max 1 µM)
Reply text: MET

Inquiry: Form field: Bliss excess at least -0.007? Entry: CS(=O)(=O)CCNCc1ccc(-c2ccc3ncnc(Nc4ccc(OCc5cccc(F)c5)c(Cl)c4)c3c2)o1 [Lapatinib] + NC1(c2ccc(-c3nc4ccn5c(=O)[nH]nc5c4cc3-c3ccccc3)cc2)CCC1 [MK-2206] (first compound max 10 µM, 7x7, partner max 10 µM)
Reply text: MET
